test_details: Oral bioavailability in mouse at 10 mg/kg
Type: ADME, organism-based
condition_set: in vivo
parameter: bioavailability (%)
Report only the number, with the unit % understood.

Using the record for `CCN1CCN(Cc2ccc(NC(=O)c3cc(Cl)cc(NC(=O)c4cncc(-c5cccs5)c4)c3)cc2C(F)(F)F)CC1` , state its measured bioavailability.
4.8

* * *

test_details: AUC (last) in mouse at 2 mg/kg, iv
Assay type: ADME, organism-based
condition_set: in vivo
parameter: AUC(0-t) (ng·h/mL)
Respond with the bare value in ng·h/mL.

Specify reported AUC(0-t) for the molecule shown: `CCN1CCN(Cc2ccc(NC(=O)c3cc(Cl)cc(NC(=O)c4cncc(-c5cccs5)c4)c3)cc2C(F)(F)F)CC1`
6860

* * *

# selectivity ratio values compiled below
test_details: Selectivity index, ratio of EC50 for human MCF7 cells to EC50 for multidrug-resistant Plasmodium falciparum Dd2 at ring stage infected in A+ erythrocytes
Assay type: toxicity, cell-based
condition_set: read-out: Ratio EC50
Just the number, please.

// known answers, use as guide
CCN1CCN(Cc2ccc(NC(=O)c3cc(Cl)cc(NC(=O)c4cccc(-c5cccs5)c4)c3)cc2C(F)(F)F)CC1 :: 33
CCN1CCN(Cc2ccc(NC(=O)c3cc(Cl)cc(NC(=O)N4CCN(C)CC4)c3)cc2C(F)(F)F)CC1 :: 15
CCN1CCN(Cc2ccc(NC(=O)c3cc(NC(=O)c4cncc(-c5cccs5)c4)ccc3F)cc2C(F)(F)F)CC1 :: 11
CCN1CCN(Cc2ccc(NC(=O)c3cc(Cl)cc(NCc4cncc(-c5cccs5)c4)c3)cc2C(F)(F)F)CC1 :: 24

Give recorded selectivity ratio. `CCN1CCN(Cc2ccc(NC(=O)c3cncc(NC(=O)c4cncc(-c5cccs5)c4)c3)cc2C(F)(F)F)CC1`
62

Answer with the recorded selectivity ratio for the compound listed here: `CCN1CCN(Cc2ccc(NC(=O)c3cc(NC(=O)c4cncc(-c5cccs5)c4)cc(C(F)(F)F)c3)cc2C(F)(F)F)CC1`
114

Given the compound `CCN1CCN(Cc2ccc(NC(=O)c3cc(Cl)cc(NC(=O)c4cncc(-c5ccc(C#N)cc5)c4)c3)cc2C(F)(F)F)CC1` , write its reported selectivity ratio.
61

// Input: `CCN1CCN(Cc2ccc(NC(=O)c3cc(Cl)cc(NC(=O)c4cnc(N)nc4)c3)cc2C(F)(F)F)CC1` . Output its selectivity ratio only.
19

* * *

test_details: Clearance in mouse at 2 mg/kg, iv
Type: ADME, organism-based
condition_set: in vivo
parameter: clearance (mL/min/kg)
Value expressed in mL/min/kg; do not type the unit.

Determine from records and report clearance for `CCN1CCN(Cc2ccc(NC(=O)c3cc(Cl)cc(NC(=O)c4cncc(-c5cccs5)c4)c3)cc2C(F)(F)F)CC1`
4.3

* * *

test_details: Cmax in mouse at 2 mg/kg, iv
Assay type: ADME, organism-based
condition_set: in vivo
parameter: Cmax (µg/mL)
Hi! Could you send only the number? It should be in µg/mL, unit omitted.

Give the measured Cmax for `CCN1CCN(Cc2ccc(NC(=O)c3cc(Cl)cc(NC(=O)c4cncc(-c5cccs5)c4)c3)cc2C(F)(F)F)CC1`
11.1

* * *

test_details: Half life in mouse at 2 mg/kg, iv
Format: ADME, organism-based
condition_set: in vivo
parameter: half-life
The answer consists of two parts: a number and, after it, its unit.

Output half-life of `CCN1CCN(Cc2ccc(NC(=O)c3cc(Cl)cc(NC(=O)c4cncc(-c5cccs5)c4)c3)cc2C(F)(F)F)CC1`
4.16 h

* * *

test_details: AUC (last) in mouse at 10 mg/kg, po
Assay type: ADME, organism-based
condition_set: in vivo
parameter: AUC(0-t) (ng·h/mL)
Kindly answer with a numeric value in ng·h/mL, unit omitted.

Respond only with AUC(0-t) recorded for `CCN1CCN(Cc2ccc(NC(=O)c3cc(Cl)cc(NC(=O)c4cncc(-c5cccs5)c4)c3)cc2C(F)(F)F)CC1`
866

* * *

Tested on: Plasmodium falciparum
test_details: Antimalarial activity against ring-stage Plasmodium falciparum 3D7 infected in O+ RBCs assessed as reduction in parasitemia incubated for 72 hrs by SYBR green I dye based analysis
Type: functional, organism-based, RBC
condition_set: 3D7, Erythrocyte
parameter: pEC50
Schema: pEC50 number; meaning minus log10 of the concentration expressed in molar units.

Please list pEC50 recorded for the compound `CCN1CCN(Cc2ccc(NC(=O)c3cc(Cl)cc(NC(=O)c4cncc(-c5cccs5)c4)c3)cc2C(F)(F)F)CC1`
7.99

* * *

test_details: Volume of distribution at steady state in mouse at 2 mg/kg, iv
Assay type: ADME, organism-based
condition_set: in vivo, read-out: Vdss
parameter: Vd (L/kg)
Please reply with the bare figure in L/kg and do not write the unit itself.

In one line, give reported Vd of the entry `CCN1CCN(Cc2ccc(NC(=O)c3cc(Cl)cc(NC(=O)c4cncc(-c5cccs5)c4)c3)cc2C(F)(F)F)CC1` .
0.84

* * *

test_details: Metabolic stability in mouse liver microsomes assessed as intrinsic clearance
Type: ADME, Liver cells
Reported intrinsic clearance values for a set of compounds
// return numeric value only (unit: µL/min/mg, not printed)

Example results:
CCN1CCN(Cc2ccc(NC(=O)c3cc(Cl)cc(NC(=O)c4cncc(-c5cccs5)c4)c3)cc2)CC1 :: 11
CCN1CCN(Cc2ccc(NC(=O)c3cc(Br)cc(NC(=O)c4cncc(-c5cccs5)c4)c3)cc2C(F)(F)F)CC1 :: 17
CCN1CCN(Cc2ccc(NC(=O)c3cncc(NC(=O)c4cncc(-c5cccs5)c4)c3)cc2C(F)(F)F)CC1 :: 36

Return value of intrinsic clearance for input `CCN1CCN(Cc2ccc(NC(=O)c3cc(Cl)cc(NC(=O)c4cncc(-c5ccco5)c4)c3)cc2C(F)(F)F)CC1` , no commentary.
12

Consider the compound `CCN1CCN(Cc2ccc(NC(=O)c3cc(NC(=O)c4cncc(-c5cccs5)c4)cc(C(F)(F)F)c3)cc2C(F)(F)F)CC1` and give its recorded intrinsic clearance.
17

Specify reported intrinsic clearance for the compound shown: `CCN1CCN(Cc2ccc(NC(=O)c3cc(Cl)cc(NC(=O)c4cccnc4)c3)cc2C(F)(F)F)CC1`
46

Specify intrinsic clearance for `CCN1CCN(Cc2ccc(NC(=O)c3cc(Cl)cc(NC(=O)c4cncc(-c5cncs5)c4)c3)cc2C(F)(F)F)CC1` and stop.
13

Using the record for `CCN1CCN(Cc2ccc(NC(=O)c3cc(Cl)cc(NC(=O)c4cncc(-c5ccc(C#N)cc5)c4)c3)cc2C(F)(F)F)CC1` , state its measured intrinsic clearance.
16

Give reported intrinsic clearance value for `CCN1CCN(Cc2ccc(NC(=O)c3cc(Cl)cc(NC(=O)c4cncc(-c5ccccc5)c4)c3)cc2C(F)(F)F)CC1`
14

Name the recorded intrinsic clearance of the item `CCN1CCN(Cc2ccc(NC(=O)c3cc(Cl)cc(NC(=O)c4cncc(-c5cccs5)c4)c3)cc2C(F)(F)F)CC1` in your answer.
9

Hello, please tell me recorded intrinsic clearance for this one: `CCN1CCN(Cc2ccc(NC(=O)c3cc(F)cc(NC(=O)c4cncc(-c5cccs5)c4)c3)cc2C(F)(F)F)CC1`
21

* * *

Tested on: Plasmodium falciparum
test_details: Antimalarial activity against artemisinin-resistant/piperaquine-sensitive synchronized early ring stage Plasmodium falciparum IPC 5202 (MRA-1240) clinical isolate assessed as decrease in parasite survival at ring stage at 10 times EC50 treated for 6 to 48 hrs followed by compound removal measured after 72 hrs by geimsa staining based microscopy
Assay type: functional, organism-based
Examples of compounds with documented pEC50 follow.
Note: pEC50 values are expressed as the negative base-10 logarithm of concentration in M.

CCN1CCN(Cc2ccc(NC(=O)c3cc(Cl)cc(NC(=O)c4cncc(-c5ccc(C#N)cc5)c4)c3)cc2C(F)(F)F)CC1 :: 7.38

Then this compound:
Quote pEC50 reported for `CCN1CCN(Cc2ccc(NC(=O)c3cc(Cl)cc(NC(=O)c4cncc(-c5cccs5)c4)c3)cc2C(F)(F)F)CC1` please.
7.14

* * *

t1/2: recorded values
test_details: Metabolic stability in mouse liver microsomes assessed as half life
Assay type: ADME, Liver cells
Value expressed in min; do not type the unit.

CCN1CCN(Cc2ccc(NC(=O)c3cncc(NC(=O)c4cncc(-c5cccs5)c4)c3)cc2C(F)(F)F)CC1 :: 19.1

Provide only the value of recorded t1/2 for `CCN1CCN(Cc2ccc(NC(=O)c3cc(Cl)cc(NC(=O)c4cncc(-c5cncs5)c4)c3)cc2C(F)(F)F)CC1`
52.1

Look up and report measured t1/2 for this entry: `CCN1CCN(Cc2ccc(NC(=O)c3cc(Br)cc(NC(=O)c4cncc(-c5cccs5)c4)c3)cc2C(F)(F)F)CC1`
40.7

Provide only the value of recorded t1/2 for `CCN1CCN(Cc2ccc(NC(=O)c3cc(Cl)cc(NC(=O)c4cncc(-c5ccco5)c4)c3)cc2C(F)(F)F)CC1`
58.1

* * *

System: HepG2
test_details: Cytotoxicity against human HepG2 cells assessed as reduction in cell viability incubated for 48 hrs by MTS assay
Format: toxicity, cell-based
condition_set: hepg2
Each item that follows carries a reported pEC50.
# pEC50 is unitless: minus log10 of the molar concentration; print number only

CCN1CCN(Cc2ccc(NC(=O)c3cc(NC(=O)c4cncc(-c5cccs5)c4)c(C)cc3F)cc2C(F)(F)F)CC1 :: 5.39

Using the record for `CCN1CCN(Cc2ccc(NC(=O)c3cc(Cl)cc(C(=O)Nc4cncc(-c5cccs5)c4)c3)cc2C(F)(F)F)CC1` , state its measured pEC50.
5.37

Report pEC50 for `CCN1CCN(Cc2ccc(NC(=O)c3cc(Cl)cc(NC(=O)N4CCN(C)CC4)c3)cc2C(F)(F)F)CC1`
4.85
